Would you mind telling me the reported TGI of each entry?
- Tested on: EKVX NSCLC
- method description: NCI tumour cell line growth inhibition, 48 h

Would you please look over these solved cases?
CN(C(=O)C1(C(=O)C=[N+]=[N-])CC1)c1ccccc1 :: > 100 µM
C=CN1C(=O)OC(c2ccccc2)C1c1ccccc1 (stereo not drawn) :: > 100 µM

// input: 4 molecules below; output: TGI for each
1. CC(=O)Oc1ccc(OC(C)=O)c2ccccc12
2. O=C1C2c3[nH]c4ccccc4c3[C@@H]3CCCCCCCCCCC3C2C(=O)N1c1ccccc1 (stereo partly drawn)
3. COc1ccc(/C=C2\Cc3ccccc3C2=O)cc1OC
4. N#Cc1cccc(NC(=O)c2ccc(C(=O)O)c(C(=O)c3ccc(C(=O)O)c(C(=O)Nc4cccc(C#N)c4)c3)c2)c1

Out:
["24.7 µM", "> 100 µM", "> 100 µM", "> 100 µM"]

// input: 6 molecules below; output: TGI for each
1. c1ccc2c(CNCCCCCCNCc3cccc4ccccc34)cccc2c1
2. O=C(c1ccccc1)C1C(C(=O)c2ccccc2)N1Cc1ccccc1 (stereo not drawn)
3. O=C(O)/C=C(/CC(=O)O)C(=O)O
4. O=C(NCc1cccnc1)/C(=C\c1ccc(Br)cc1)S(=O)(=O)c1ccccc1
5. Cc1cnc[nH]c1=O
6. CC1=NNC(=NCCN(C)C)C/C1=C/c1ccccc1Cl

Out:
1. 26.4 µM
2. > 100 µM
3. 51.7 µM
4. 2.61 µM
5. > 100 µM
6. > 100 µM

// input: 2 molecules below; output: TGI for each
1. Cc1ccc(C(=O)N(C(C)C)C(C)C)cc1N=NN(C)C
2. O=C(N/N=C(/c1nc2ccc(Cl)cc2[nH]c1=O)C(O)c1ccc(Cl)cc1Cl)c1ccncc1 (stereo not drawn)

Out:
1: > 100 µM; 2: > 100 µM

// input: 7 molecules below; output: TGI for each
1. Nc1ccc(-c2nc3ccc4[nH]ncc4c3c3c2CCCC3)cc1F
2. S=c1nc[nH]c2c1ncn2Cc1ccco1
3. CN(C)C[C@H]1CC[C@@H](CN(C)C)C1=O
4. COc1ccc(-c2oc(=O)ccc2C#Cc2cc(OC)c(OC)c(OC)c2)cc1O
5. Cn1c2c([N+](=O)[O-])[se]nc2c(=O)n1-c1ccc([N+](=O)[O-])cc1
6. CN1CCn2c(Br)ccc2C1=O
7. CCOC(=O)C(C)(C)Oc1ccc2c(=O)cc(-c3ccccc3)oc2c1

Out:
1. 3.92 µM
2. > 100 µM
3. 24.3 µM
4. > 100 µM
5. 5.23 µM
6. > 100 µM
7. 84.8 µM

// input: 2 molecules below; output: TGI for each
1. O=C(O)C(CCc1ccccn1)c1ccccc1 (stereo not drawn)
2. C/C(=N\NC(N)=O)C(CN1CCCCC1)C(c1ccccc1)c1c(O)c2ccccc2oc1=O (stereo not drawn)

Out:
["> 100 µM", "> 100 µM"]

###

- System: HS 578T breast
- method description: NCI tumour cell line growth inhibition, 48 h
Would you mind telling me the reported TGI of each entry?

Would you please look over these solved cases?
CCN(CC)CCO/N=C1\CC[C@H]2[C@@H]3CC=C4C[C@@H](O)CC[C@]4(C)[C@H]3CC[C@]12C :: > 100 µM
Cc1cc(S(=O)(=O)Nc2nnc3c(C(F)(F)F)cc(Cl)cn23)c(S)cc1Cl :: > 100 µM
CC(C)C[C@H](NC(=O)[C@H](CCc1ccccc1)NC(=O)CN1CCOCC1)C(=O)N[C@@H](Cc1ccccc1)C(=O)N[C@@H](CC(C)C)C(=O)[C@@]1(C)CO1 :: 3.34 µM

// next entry
In: Find the measured TGI of O=C(c1ccccc1)C1C(C(=O)c2ccccc2)N1Cc1ccccc1 (centres undefined) and report it.
Out: > 100 µM
